- EXPERIMENTAL_TARGET: membrane-associated human IR-B (plasma membranes of BHK cells stably transfected with the human IR-B insert) (human) (UniProt P06213)
- Sequence (P06213 28-1382): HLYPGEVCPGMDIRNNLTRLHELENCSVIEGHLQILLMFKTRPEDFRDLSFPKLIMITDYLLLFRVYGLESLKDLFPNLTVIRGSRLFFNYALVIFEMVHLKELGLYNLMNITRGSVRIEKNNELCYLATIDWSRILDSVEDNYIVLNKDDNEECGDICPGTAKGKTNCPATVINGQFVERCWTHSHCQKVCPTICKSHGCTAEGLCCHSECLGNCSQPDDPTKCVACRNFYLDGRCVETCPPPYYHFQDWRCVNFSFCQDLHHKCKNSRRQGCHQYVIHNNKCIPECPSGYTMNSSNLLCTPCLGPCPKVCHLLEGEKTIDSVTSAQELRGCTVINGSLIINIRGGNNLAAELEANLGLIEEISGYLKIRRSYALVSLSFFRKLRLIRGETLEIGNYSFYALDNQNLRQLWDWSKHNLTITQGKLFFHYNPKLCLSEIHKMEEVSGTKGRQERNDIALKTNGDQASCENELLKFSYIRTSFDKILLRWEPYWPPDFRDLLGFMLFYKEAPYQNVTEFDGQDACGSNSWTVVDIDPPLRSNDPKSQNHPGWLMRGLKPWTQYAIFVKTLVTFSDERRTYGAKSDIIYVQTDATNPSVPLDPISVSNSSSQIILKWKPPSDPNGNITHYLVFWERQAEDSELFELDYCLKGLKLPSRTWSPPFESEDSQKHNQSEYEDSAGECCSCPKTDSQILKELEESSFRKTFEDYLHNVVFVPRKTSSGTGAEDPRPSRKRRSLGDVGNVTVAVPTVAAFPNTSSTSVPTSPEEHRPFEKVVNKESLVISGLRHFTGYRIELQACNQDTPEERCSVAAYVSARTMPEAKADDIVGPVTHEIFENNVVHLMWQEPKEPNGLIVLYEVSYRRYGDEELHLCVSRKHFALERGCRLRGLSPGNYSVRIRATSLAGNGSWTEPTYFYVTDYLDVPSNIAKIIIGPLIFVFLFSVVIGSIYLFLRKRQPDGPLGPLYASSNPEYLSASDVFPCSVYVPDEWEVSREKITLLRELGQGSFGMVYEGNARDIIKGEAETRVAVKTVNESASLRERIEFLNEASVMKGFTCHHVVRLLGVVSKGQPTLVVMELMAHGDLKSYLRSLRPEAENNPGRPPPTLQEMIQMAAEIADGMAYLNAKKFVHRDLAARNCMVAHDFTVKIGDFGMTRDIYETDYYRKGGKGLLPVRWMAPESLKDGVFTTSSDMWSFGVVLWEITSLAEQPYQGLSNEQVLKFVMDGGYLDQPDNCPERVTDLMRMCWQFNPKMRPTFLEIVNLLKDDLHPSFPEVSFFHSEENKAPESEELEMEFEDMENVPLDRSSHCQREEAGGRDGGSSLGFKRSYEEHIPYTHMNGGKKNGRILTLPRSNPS
- ASSAY_SUMMARY: SPA competition vs [125I-A14Y]-human insulin, membrane hIR-B, 0.1% HSA
MEASURED_QUANTITY: relative binding affinity (% rel to HI)

Guide cases for relative binding affinity (% rel to HI), answers given:
{"BINDER": "A14E, A22K(N(eps)tetradecanedioyl-4xgGlu), B3Q, B27E, B28E, B29R, desB30 human insulin (ligand, not fully specified; Lys A22 acylated on N(eps) with tetradecanedioyl-4xgGlu, also called Ex. No. 9) chain 1: GIVEQCCTSICSLEQLENYCNK chain 2: FVQQHLCGSHLVEALYLVCGERGFFYEER", "relative binding affinity (% rel to HI)": "68.7 % rel to HI"}
{"BINDER": "A8R, A22K(N(eps)tetradecanedioyl-4xgGlu), B3E, B27E, B28R, desB29, desB30 human insulin (ligand, not fully specified; Lys A22 acylated on N(eps) with tetradecanedioyl-4xgGlu, Two-chain acylated insulin analogue; also called Ex. No. 17) chain 1: GIVEQCCRSICSLYQLENYCNK chain 2: FVEQHLCGSHLVEALYLVCGERGFFYER", "relative binding affinity (% rel to HI)": "130 % rel to HI"}

Prompt: Report relative binding affinity (% rel to HI) for A14E, A22K(N(eps)hexadecanedioyl-4xgGlu), B3E, B27E, B28E, B29R, desB30 human insulin (ligand, not fully specified; Lys A22 acylated on N(eps) with hexadecanedioyl-4xgGlu, Two-chain acylated insulin analogue; also called Ex. No. 27) chain 1: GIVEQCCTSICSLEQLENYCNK chain 2: FVEQHLCGSHLVEALYLVCGERGFFYEER please.
Response: 23.2 % rel to HI
